# Target or system: T1, P-cadherin-ECD1-3-Fc protein (human P-cadherin-Fc) (human, UniProt P22223 108-440)
# T1 construct: Construct was expressed with signal peptide and pro-peptide (PACE co-transfected to process the propeptide); not shown: hinge and CH2 and CH3 domains of human IgG1
# T1 sequence (P22223 108-440): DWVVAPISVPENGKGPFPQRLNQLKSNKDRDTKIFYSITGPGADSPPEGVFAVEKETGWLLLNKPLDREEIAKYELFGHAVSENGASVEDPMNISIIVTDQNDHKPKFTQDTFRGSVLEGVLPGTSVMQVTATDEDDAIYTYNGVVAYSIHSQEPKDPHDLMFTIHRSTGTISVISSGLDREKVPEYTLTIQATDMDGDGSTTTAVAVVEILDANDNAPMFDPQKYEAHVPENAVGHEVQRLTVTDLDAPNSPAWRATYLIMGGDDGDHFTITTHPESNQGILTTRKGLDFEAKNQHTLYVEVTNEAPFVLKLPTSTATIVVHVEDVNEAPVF
# Experiment summary: phage scFv ELISA, coated P-cadherin-ECD1-3-Fc
Record Criterion met whenever Human P-cadherin-Fc binding (OD450) is at 2 OD450 or higher; record Criterion not met when lower.

Use the examples below as a reference point.
Binder | Qualitative label
anti-P-cadherin scFv 153 alanine-mutant L2.4-Ala (scFv, V domains shown, scFv on phage) VH: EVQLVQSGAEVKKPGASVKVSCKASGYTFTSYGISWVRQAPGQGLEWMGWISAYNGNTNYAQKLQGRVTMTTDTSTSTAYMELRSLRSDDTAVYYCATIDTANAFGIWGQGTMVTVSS VL: QSVLTQPPSVSAAPGQKVTISCSGSSSNIGNNYVSWYQQLPGTAPKLLIYDNNARPSGIPDRFSGSKSGTSATLGITGLQTGDEADYYCGTWDSSLSGVVFGGGTKLTVL | Criterion met
anti-P-cadherin scFv 153 (parental clone 153), displayed on phage (scFv, V domains shown, scFv expressed on the surface of phage) VH: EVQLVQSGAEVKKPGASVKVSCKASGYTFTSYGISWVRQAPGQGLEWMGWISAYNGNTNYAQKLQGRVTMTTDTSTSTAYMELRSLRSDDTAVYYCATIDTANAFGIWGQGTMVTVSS VL: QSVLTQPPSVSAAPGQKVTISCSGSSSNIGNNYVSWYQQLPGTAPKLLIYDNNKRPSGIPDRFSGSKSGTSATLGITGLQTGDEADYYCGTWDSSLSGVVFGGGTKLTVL | Criterion not met
anti-P-cadherin scFv 153 alanine-mutant L3.7-Ala (scFv, V domains shown, scFv on phage) VH: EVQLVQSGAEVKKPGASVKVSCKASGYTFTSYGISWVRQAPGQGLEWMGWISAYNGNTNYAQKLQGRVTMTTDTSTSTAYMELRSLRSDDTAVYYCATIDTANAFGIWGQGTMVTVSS VL: QSVLTQPPSVSAAPGQKVTISCSGSSSNIGNNYVSWYQQLPGTAPKLLIYDNNKRPSGIPDRFSGSKSGTSATLGITGLQTGDEADYYCGTWDSSASGVVFGGGTKLTVL | Criterion met
anti-P-cadherin scFv 153 alanine-mutant L3.10-Ala (scFv, V domains shown, scFv on phage) VH: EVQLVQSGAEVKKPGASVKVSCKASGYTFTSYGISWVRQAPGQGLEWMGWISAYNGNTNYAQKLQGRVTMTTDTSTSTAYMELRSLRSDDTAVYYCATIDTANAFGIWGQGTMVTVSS VL: QSVLTQPPSVSAAPGQKVTISCSGSSSNIGNNYVSWYQQLPGTAPKLLIYDNNKRPSGIPDRFSGSKSGTSATLGITGLQTGDEADYYCGTWDSSLSGAVFGGGTKLTVL | Criterion not met
anti-P-cadherin scFv 153 alanine-mutant L1.11-Ala (scFv, V domains shown, scFv on phage) VH: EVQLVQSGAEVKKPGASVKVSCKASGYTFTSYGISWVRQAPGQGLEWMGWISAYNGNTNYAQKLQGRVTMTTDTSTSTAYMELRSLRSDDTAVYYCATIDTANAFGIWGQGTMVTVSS VL: QSVLTQPPSVSAAPGQKVTISCSGSSSNIGNNAVSWYQQLPGTAPKLLIYDNNKRPSGIPDRFSGSKSGTSATLGITGLQTGDEADYYCGTWDSSLSGVVFGGGTKLTVL | Criterion not met

Then this binder:
Determine whether this binder has Human P-cadherin-Fc binding (OD450) no lower than 2 OD450: anti-P-cadherin scFv 153 alanine-mutant L1.8-Ala (scFv, V domains shown, scFv on phage) VH: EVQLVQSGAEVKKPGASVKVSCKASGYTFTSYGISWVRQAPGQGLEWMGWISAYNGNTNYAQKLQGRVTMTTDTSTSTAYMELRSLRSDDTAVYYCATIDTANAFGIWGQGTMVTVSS VL: QSVLTQPPSVSAAPGQKVTISCSGSSSNIANNYVSWYQQLPGTAPKLLIYDNNKRPSGIPDRFSGSKSGTSATLGITGLQTGDEADYYCGTWDSSLSGVVFGGGTKLTVL Criterion not met
